Parameter: melting point. Scope: all listed entries.

molecule	melting point
Cn1nc(N2CCSCC2)c2ccccc2c1=O [5b]	132 to 134 °C
Cn1nc(N2CCCCC2)c2ccccc2c1=O [5c]	92 to 93 °C
Cn1nc(N(c2ccccc2)c2ccccn2)c2ccccc2c1=O [5i]	160 to 163 °C
COc1ccc(CNc2nn(C(C)C)c(=O)c3ccccc23)cc1 [5h]	108 to 110 °C
CCN(CC)CCCC(C)Nc1nn(CCN(C)C)c(=O)c2ccccc12 (centres unmarked) [6e]	58 to 60 °C
CCN(CC)CCCC(C)Nc1nn(C)c(=O)c2ccccc12 (centres unmarked) [6b]	84 to 86 °C
CC(C)n1nc(NCCc2cccs2)c2ccccc2c1=O [5f]	121 to 123 °C
Cn1nc(NCc2ccc(C(F)(F)F)cc2)c2ccccc2c1=O [5g]	216 to 218 °C
CCCCCCNc1nn(C(C)C)c(=O)c2ccccc12 [5e]	86 to 87 °C
CNCCNc1nn(C)c(=O)c2ccccc12 [6d]	153 to 155 °C
Cn1nc(N2CCOCC2)c2ccccc2c1=O [5a]	135 to 136 °C

###

System: PC-3 (human prostate cancer cell line)
assay_details: MTT cytotoxicity assay, PC-3
Type: cell-based
test_conditions: 72 h of cell treatment, PC-3 cells
pIC50: −log10 of the molar value.

molecule	pIC50
Cn1nc(N2CCCCC2)c2ccccc2c1=O	4.34
Cn1nc(NC2CCCCC2)c2ccccc2c1=O	4.70
CCN(CC)CCCC(C)Nc1nn(C)c(=O)c2ccccc12 (stereo not drawn)	4.18
Cn1nc(NCc2ccc(C(F)(F)F)cc2)c2ccccc2c1=O	4.65
CNCCNc1nn(C)c(=O)c2ccccc12	4.08
CC(C)n1nc(NCCc2cccs2)c2ccccc2c1=O	4.56

###

Listed here are molecules together with their documented IC50.
Tested on: L-929 cells (mouse fibroblast cell line)
assay_details: MTT cytotoxicity assay, L-929
Assay type: cell-based
test_conditions: L929, 72 h of cell treatment, L-929 control (non-cancer) cells

molecule	IC50
CC(C)n1nc(NCCc2cccs2)c2ccccc2c1=O	20.1 µM
Cn1nc(NCc2ccc(C(F)(F)F)cc2)c2ccccc2c1=O	21.3 µM
CCN(CC)CCCC(C)Nc1nn(C)c(=O)c2ccccc12 (stereo not drawn)	92.9 µM
Cn1nc(N2CCCCC2)c2ccccc2c1=O	27.4 µM
CNCCNc1nn(C)c(=O)c2ccccc12	52.7 µM
Cn1nc(NC2CCCCC2)c2ccccc2c1=O	20.4 µM

###

Test system: HT-29 (human colon adenocarcinoma cell line)
assay_details: MTT cytotoxicity assay, HT-29
Format: cell-based
test_conditions: 72 h of cell treatment, HT-29 cells
pIC50: −log10 of the molar value.
Overview of recorded pIC50 for various molecules

molecule	target_or_system	pIC50
CNCCNc1nn(C)c(=O)c2ccccc12 [6d]	HT-29 (human colon adenocarcinoma cell line)	4.12
CC(C)n1nc(NCCc2cccs2)c2ccccc2c1=O [5f]	HT-29 (human colon adenocarcinoma cell line)	4.56
Cn1nc(NCc2ccc(C(F)(F)F)cc2)c2ccccc2c1=O [5g]	HT-29 (human colon adenocarcinoma cell line)	4.50
Cn1nc(NC2CCCCC2)c2ccccc2c1=O [5d]	HT-29 (human colon adenocarcinoma cell line)	4.53
Cn1nc(N2CCCCC2)c2ccccc2c1=O [5c]	HT-29 (human colon adenocarcinoma cell line)	4.44
CCN(CC)CCCC(C)Nc1nn(C)c(=O)c2ccccc12 (stereo not drawn) [6b]	HT-29 (human colon adenocarcinoma cell line)	4.29
